Exercise: state measured TGI for each of the molecules provided.
System: NCI-H226 lung
Assay: NCI tumour cell line growth inhibition, 48 h

// query I have this molecule here, Cc1nn(C(=O)c2ccncc2)c2c1C(c1cccc([N+](=O)[O-])c1)SC(N)=N2 (stereo unspecified) , and I need its recorded TGI.
// result > 10 µM

// query How about O=C(NN1C(=O)CSC1c1ccc(F)cc1)C(O)c1ccccc1 (stereo unspecified) ?
// result > 100 µM

// query How about CCCCCCCCCCCCCP(=O)(NCC(N)=O)OCC (stereo unspecified) ?
// result 33.5 µM

// query How about CCC1C(=O)OCc2c1cc1n(c2=O)C(CC)c2c-1nc1ccccc1c2Cl (stereo unspecified) ?
// result > 100 µM

// query How about Cc1nc2c(sc(=S)n2-c2ccccc2)c2nc3ccccc3n12 ?
// result > 100 µM

// query How about COc1cc(C2CC(=O)Nc3c2cc(Br)c2ccccc32)cc(Br)c1OC (stereo unspecified) ?
// result 5.57 µM

// query How about C=C(Br)CNCC(=C)Br ?
// result > 100 µM

// query How about CC(=O)O[C@H]1CN(S(=O)(=O)c2ccc(C)cc2)C[C@@H]1C1CCCCC1 ?
// result 48.9 µM

// query How about Cc1cc(C)nc(NS(=O)(=O)c2ccc(NC(=O)c3cccn4c(=O)c5ccccc5nc34)cc2)n1 ?
// result 97.3 µM

// query How about O=C1CSC(c2ccccc2O)N1c1nnc(Cn2ccnc2)o1 (stereo unspecified) ?
// result > 100 µM

// query How about COP(=O)(OC)C(NC=O)P(=O)(OC)OC ?
// result > 100 µM

---

Test system: NCI-H460 lung
Outcomes you can answer with include only these: active, inactive

// query # outcome recorded in this test, key = COc1ccc2c(c1)C(=O)c1c-2n(CCCN)c(=O)c2cc([N+](=O)[O-])ccc12
// result active

// query How about OCc1ccc(N2CCCC2)cc1Cl ?
// result inactive

// query How about O=C1/C(=C/c2cccc(Br)c2)COc2ccc(O)c(O)c21 ?
// result inactive

// query How about COc1ccc(Oc2ccccc2NC(=O)CNC(=O)c2cccc3ccccc23)cc1 ?
// result inactive

// query How about Cc1c2ccncc2c(C)c2c1c1cc(CO)ccc1n2C ?
// result active

// query How about N.N.N.N.N.O=S(=O)([O-])C(F)(F)F.O=S(=O)([O-])C(F)(F)F.[Os+8] ?
// result inactive

// query How about CC(=O)[CH-]C(=O)Nc1ccccc1.CC(=O)[CH-]C(=O)Nc1ccccc1.CC[O-].CC[O-].[Ti+4] ?
// result inactive

// query How about O=S(=O)(NC1=NCCN1C(=S)SN1CCn2c1nsc2=S)c1cccc(OC(F)(F)F)c1 ?
// result inactive

// query How about O=C1CSC(c2ccccc2O)N1c1nnc(Cn2ccnc2)o1 (stereo not given) ?
// result inactive

// query How about Oc1c(Cl)cc(Cl)c2cccnc12 ?
// result inactive

---

Tested on: IGROV1 ovarian
Experiment: NCI tumour cell line growth inhibition, 48 h
readout label: TGI (µM)
Value expressed in µM; do not type the unit.

// query I have this molecule here, CN1CCN(c2cc3nc4ccccc4n(-c4ccc(Cl)cc4)c-3cc2=N)CC1 , and I need its recorded TGI.
// result 53.5

// query How about Nc1n[nH]c2ccc([C@@H]3Nc4cc5[nH]ncc5cc4[C@H]4C5CCC(C5)[C@@H]34)cc12 (some centres not stated) ?
// result 41.8

// query How about CCN(CC)C(=S)SSC(=S)N(CC)CC ?
// result 543

---

Tested on: PC-3 prostate
Experiment: NCI tumour cell line growth inhibition, 48 h
Exercise: state measured TGI for each of the molecules provided.

// query I have this molecule here, COC(=O)/C(=C\c1ccco1)P(=O)(OC)OC , and I need its recorded TGI.
// result > 100 µM

// query How about Cc1nn(C)c2nc3ccc(Cl)cc3c(-c3ccccc3)c12 ?
// result > 100 µM

// query How about Cc1cc(NC(=O)c2cnc(N3CCN(CCOCCOCCOCCOCCC(=O)N[C@H](C(=O)N4C[C@H](O)C[C@H]4C(=O)N[C@@H](C)c4ccc(-c5scnc5C)cc4)C(C)(C)C)CC3)cn2)c2ncccc2c1 ?
// result 10.4 µM

// query How about Cc1ccc(N=C2SC(c3ccc(C)cc3)(c3ccc(C)cc3)c3ccccc32)cc1 ?
// result > 100 µM

// query How about CC1=C(C(=O)Nc2ccc(F)c(Cl)c2)C(c2ccccc2O)NC(=O)N1 (stereo not given) ?
// result > 100 µM

---

Tested on: NCI-H460 lung
Test: NCI tumour cell line growth inhibition, 48 h
readout label: TGI (µM)
Value expressed in µM; do not type the unit.

// query I have this compound here, COc1ccc2c(c1)/C(=C\c1c[nH]c3ccc(OC)cc13)C(=O)N2 , and I need its recorded TGI.
// result 13.1

// query How about Nc1ccc(C(=O)NN2C(=O)C(Cl)C2c2cccc(O)c2)cc1 (stereo unspecified) ?
// result 29.7

// query How about C/C(=C\Cc1cc(O)ccc1O)CCc1c(C)c(O)c(O)c(C=O)c1C ?
// result 53.3

// query How about O=C1CCC(N2C(=O)c3cccc(NCCCC4CCN(CCNC(=O)c5cc6c(o5)C(=O)c5ccccc5C6=O)CC4)c3C2=O)C(=O)N1 (stereo unspecified) ?
// result 0.609

// query How about O=C(Nc1cnc(C(F)(F)F)cn1)c1cc(Cl)ccc1O ?
// result 15.2

// query How about CCN(CC)CCC(CNc1c(C)cnc2cc(Cl)ccc12)c1ccc(Cl)cc1 (stereo unspecified) ?
// result 25.2

// query How about C[C@H]1c2ccccc2CN1CCCOc1cc2c(cc1OCC1CC1)C1(CCCC1)C(N)=N2 ?
// result 2.1

// query How about OCc1ccc(N2CCCC2)cc1Cl ?
// result 28.5

// query How about ONC1=Nc2ccccc2OCc2cc(Br)c(Br)cc2COc2ccccc2N=C1NO ?
// result 30.2

// query How about CCN1CCCC(Nc2cc(C)nc(/N=C(/N)Nc3ccc(Cl)c(Cl)c3)n2)C1 (stereo unspecified) ?
// result 2.93

---

System: SN12C renal
Assay: NCI tumour cell line growth inhibition, 48 h
Exercise: state measured TGI for each of the compounds provided.

// query I have this compound here, CCN(CC)C(=O)COc1cc2c(O)c3c(O)c(C)c4c(c13)C(=O)C(C)(OC=CC(OC)C(C)C(OC(C)=O)C(C)C(O)C(C)C(O)C(C)C=CC=C(C)C(=O)N2)O4 (stereo unspecified) , and I need its recorded TGI.
// result > 100 µM

// query How about Cc1ccc(S(=O)(=O)c2ccc([N+](=O)[O-])o2)cc1 ?
// result 35.5 µM

// query How about Nc1ccc(-c2nc3ccc(F)cc3s2)cc1 ?
// result > 100 µM

// query How about Clc1nc(Nc2nc3ccccc3[nH]2)nc(Cl)c1Cc1ccccc1 ?
// result > 100 µM

// query How about Cc1c(C#N)c2nnn(-c3ccccc3)c(=O)n2c1-c1ccccc1 ?
// result > 56.8 µM

// query How about O=c1[nH]cnc2sc(=S)c3c(c12)CCC3 ?
// result > 100 µM

// query How about Cc1nn(C(=O)c2ccncc2)c2c1C(c1cccc([N+](=O)[O-])c1)SC(N)=N2 (stereo unspecified) ?
// result > 10 µM

// query How about COC(=O)/C=C/c1cc(OC)c2oc(-c3ccc(OC)c(OC)c3)c(C(=O)OC)c2c1 ?
// result > 100 µM

// query How about COc1cc(C(c2cccc3ccccc23)N2C(=O)CCC2C(=O)NCc2ccccc2)cc(OC)c1OC (stereo unspecified) ?
// result > 100 µM

// query How about Nc1ccc(C(=O)N/C(=C\c2cccc([N+](=O)[O-])c2)c2nc3ccc(Cl)cc3[nH]2)cc1 ?
// result > 100 µM

// query How about CCN1CCCC(Nc2cc(C)nc(/N=C(/N)Nc3ccc(Cl)c(Cl)c3)n2)C1 (stereo unspecified) ?
// result 6.64 µM

// query How about O=c1cccc(C#CC#CCCCO)o1 ?
// result 16.7 µM

// query How about CCC(=O)NC(OCC1(CC)COC1)(C(F)(F)F)C(F)(F)F ?
// result > 100 µM

// query How about CC1=C(C(=O)Nc2ccc(F)c(Cl)c2)C(c2ccccc2O)NC(=O)N1 (stereo unspecified) ?
// result > 100 µM

// query How about Cc1oc2c(c1C(=O)N1CC[C@@H](N)C1)C(=O)c1c(c(O)c3ccccc3c1O)C2=O ?
// result 11 µM

// query How about Oc1nc(N/N=C/c2ccccc2)[nH]c1/C=C1\C=Nc2ccccc21 ?
// result > 100 µM

// query How about O=C(NCC(=O)N1CCOC1=O)OCc1ccccc1 ?
// result > 100 µM

// query How about Cc1cccc2c(Nc3ccc(NS(C)(=O)=O)cc3)c3ccc([N+](=O)[O-])cc3nc12 ?
// result 7.58 µM

// query How about COc1cc(C2CC(=O)Nc3c2cc(Br)c2ccccc32)cc(Br)c1OC (stereo unspecified) ?
// result > 100 µM

// query How about O=C1c2ccccc2-c2nc(-c3ccccc3)cc3c2c1nc1ccccc13 ?
// result 32.8 µM

// query How about C=CCn1c(=O)c2cnc(Nc3ccc(N4CCN(C)CC4)cc3)nc2n1-c1cccc(C(C)(C)O)n1 ?
// result > 100 µM
